Examples of molecules with documented pEC50 follow.
target: TRα (Homo sapiens); construct: The firefly luciferase reporter under the Gal4 UAS is a separate reporter gene; assay: Thyroid-hormone reporter-gene assay (Gal4-TR hybrid, luciferase), TRα; details: HEK293-derived reporter cells, 24 hr incubation
Sequence (P10827 163-410 isoform P10827-2 limits assumed): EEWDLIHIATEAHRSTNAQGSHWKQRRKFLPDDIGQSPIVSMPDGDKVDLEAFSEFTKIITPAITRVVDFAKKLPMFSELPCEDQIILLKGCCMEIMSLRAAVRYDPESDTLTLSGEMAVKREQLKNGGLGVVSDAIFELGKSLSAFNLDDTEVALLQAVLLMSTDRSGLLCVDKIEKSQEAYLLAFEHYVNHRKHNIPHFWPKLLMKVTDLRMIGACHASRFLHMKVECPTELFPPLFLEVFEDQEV
pEC50: −log10 of the molar value.

- molecule: "CC(C)c1cc(Cc2c(Cl)cc(OCC(=O)O)cc2C(C)C)ccc1O [Compound 31]"
  result: "7.00 to 8.00"
- molecule: "C=C(C)c1cc(OCC(=O)O)cc(Cl)c1Cc1ccc(O)c(C(C)C)c1 [Compound 30]"
  result: "6.00 to 7.00"
- molecule: "CCc1cc(OCC(=O)O)cc(C)c1Cc1ccc(O)c(C(C)C)c1 [Compound 16]"
  result: "6.00 to 7.00"
- molecule: "C/C=C/c1cc(OCC(=O)O)cc(C)c1Cc1ccc(O)c(C(C)C)c1 [Compound 23]"
  result: "< 6.00"

Now examine the next entry.
Entry Cc1cc(OCC(=O)O)cc(Cl)c1Cc1ccc(O)c(C(C)C)c1 [Compound 2] has what pEC50?
6.00 to 7.00
